Test system: EPHB1 kinase domain
Experiment: pTyr-Var library bacterial peptide display kinase screen (enrichment scores);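 note: log2 fold change in enrichment of variant over reference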
Assay type: biochemical, human
Conditions: sheet EPHB1; effect of the variant peptide relative to its reference peptide in the pTyr-Var library screen (enrichment scores)
valueKind: Screen

In the examples that follow, each entry is paired with its recorded Screen.
orderedResidues: TLSGIYQFSIA [FOXL2_Y81_I84S_YF]
Screen: -3.13
--
orderedResidues: LSIQTYSALNF [DES_Y423_P419S]
Screen: -1.829
--
orderedResidues: HNLPIYEGFAL [ACTA1_Y168_V165L_YF]
Screen: -0.3324
--
orderedResidues: PHQTIYGALMI [FGF23_Y70_S71G]
Screen: -3.192
--
orderedResidues: QSSALYEDCFL [ASS1_Y83_R86C_YF]
Screen: 1.322
--
orderedResidues: RNEAFYDTFST [EFCAB3_Y372_S370A]
Screen: -3.139

Turning now to a further sequence:
Fill in: Screen of RWQQLYDTLNA [EIF3M_Y351_Q346R] is ___
-0.05321

====

System: Fer kinase domain
Assay: pTyr-Var library bacterial peptide display kinase screen (enrichment scores);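 note: log2 fold change in enrichment of variant over reference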
Assay type: biochemical, mouse
Conditions: sheet "Fer"; value of the variant peptide against its reference peptide in the pTyr-Var library screen with Fer
Listing of recorded Screen by entry.
// no unit, no text: just the number

orderedResidues: HNLPIYEGFAL [ACTA1_Y168_V165L_YF]
Screen: -0.04484
//
orderedResidues: RNEAFYDTFST [EFCAB3_Y372_S370A]
Screen: -0.7665
//
orderedResidues: RWQQLYDTLNA [EIF3M_Y351_Q346R]
Screen: -0.4426
//
orderedResidues: LSIQTYSALNF [DES_Y423_P419S]
Screen: -2.047

What value of Screen has been recorded for this entry: PHQTIYGALMI [FGF23_Y70_S71G]
-2.622

// repeat for QSSALYEDCFL [ASS1_Y83_R86C_YF] and report
0.6979

Please answer likewise for TLSGIYQFSIA [FOXL2_Y81_I84S_YF]
-1.302

====

Test system: EPHB2 kinase domain
Test: pTyr-Var library bacterial peptide display kinase screen (enrichment scores);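 note: log2 fold change in enrichment of variant over reference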
Type: biochemical, human
Details: sheet EPHB2; effect of variant peptide relative to its reference peptide in the pTyr-Var library screen (enrichment scores)
List of Screen values.
Kindly provide the number alone.

orderedResidues: QSSALYEDCFL [ASS1_Y83_R86C_YF]
Screen: 1.929
--
orderedResidues: RNEAFYDTFST [EFCAB3_Y372_S370A]
Screen: -2.77

Which Screen is reported for this sequence? PHQTIYGALMI [FGF23_Y70_S71G]
-2.622

Now the same for LSIQTYSALNF [DES_Y423_P419S]
-1.403

Then this sequence: HNLPIYEGFAL [ACTA1_Y168_V165L_YF]
-0.1826

Next entry: TLSGIYQFSIA [FOXL2_Y81_I84S_YF]
-3.18

Can you check RWQQLYDTLNA [EIF3M_Y351_Q346R] next?
0.365

Same lookup for VFLGAYDCFLP [SLC22A5_Y486_R488C_YF] , please.
1.473

====

Biological target: c-Src kinase domain (Homo sapiens)
Assay: RP-HPLC assay to measure peptide phosphorylation kinetics
Format: biochemical
Conditions: purified peptide substrate
valueKind: Phosphorylation Rate
# number then unit; no other words

# count of solved cases: 4
substance: Ac-WDLSEYSFKDP-NH2 [ITGA3_Y237_YF]
Phosphorylation Rate: 0.555 s⁻¹
//
substance: Ac-GPDEPIYDMFPFKKKG-NH2 [Src Consensus (C-2P), Src Consensus variant with –2 Pro]
Phosphorylation Rate: 12.667 s⁻¹
//
substance: Ac-GPDESIYDMFPFKKKG-NH2 [Src Consensus (C-2S), Src Consensus variant with –2 Ser]
Phosphorylation Rate: 5.171 s⁻¹
//
substance: Ac-AGQEKYSAMRD-NH2 [HRAS-Y64-E63K]
Phosphorylation Rate: 0.027 s⁻¹

Would you kindly look at the next entry?
Kindly state the measured Phosphorylation Rate obtained for Ac-LERFIYNREEL-NH2 [HLA-DPB1_Y59_F64L_YF, pTyr-Var library variant peptide, non-canonical c-Src substrate] with c-Src kinase domain (Homo sapiens).
0.258 s⁻¹
